Hey, just so you know, these numbers are from the supplement of paper PMC7125110.

What self-cleavage kobs at 640 uM GlcN6P was measured for each of the following?
B1: glmS ribozyme (parent)
chain: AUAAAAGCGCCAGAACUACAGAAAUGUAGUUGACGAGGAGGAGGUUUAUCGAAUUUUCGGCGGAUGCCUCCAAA

variants of: B1; experiment: self-cleavage kobs at 640 uM GlcN6P; higher = faster cleavage; RNA array; settings: with glucosamine-6-phosphate
This sample holds only a part of the variants without activity.

State the recorded self-cleavage kobs at 640 uM GlcN6P for this entry: AUAAAAGCGCCAGAACUACAGAAAUGUAGUUGAAGAGGAGGAGGUGUAUCGAAUUUUCGGCGGAUGCCUCCAAA [C34A U46G]
< 1e-05 s⁻¹

State the recorded self-cleavage kobs at 640 uM GlcN6P for this entry: AUAAAAGCGCCAGAUCUACAGAAAUGUAGUUGACGAGGAGGAGGUUUAUCGAAUUUUCGGCGGAUGCCUCAAAA [A15U C71A]
0.000278 s⁻¹

State the recorded self-cleavage kobs at 640 uM GlcN6P for this entry: AUAAAAGCGCCAGAACUACAGAAAUGUAGUUGUCGAGGAGGCGGUUGAUCGAAAUUUCGGCGGAUGCCUCCAAA [A33U A42C U47G U54A]
< 1e-05 s⁻¹

State the recorded self-cleavage kobs at 640 uM GlcN6P for this entry: AUAAAAGCGCCAGAAAUACAGAAAUGUAGUUGAGGAGGAGGAGGUUUAUCGAAUUUUCGGCGGAUGCCUCCAAA [C16A C34G]
< 1e-05 s⁻¹

State the recorded self-cleavage kobs at 640 uM GlcN6P for this entry: AUAAAAGCGCCAGAACUACAGAAAUGUAGUUGACGAGUAGGAGGUUUAUCGAAUUUUCGGCGGAUGUCUUCAAA [G38U C67U C70U]
0.000296 s⁻¹

State the recorded self-cleavage kobs at 640 uM GlcN6P for this entry: AUAAAAUCGCCAGCACUACAGAAAUGUAGUUGACGAGGAGGAGGUUUUUCGAAUUUUCGGCGGAUGCCUCCAAA [G7U A14C A48U]
< 1e-05 s⁻¹

State the recorded self-cleavage kobs at 640 uM GlcN6P for this entry: AUAAAAGCGCCAGAACUACAGAAAUGUAGUUGCCGAGGAGGAGGUUUAUCGAAUUCUCGGCGGAUGCCUCCAAA [A33C U56C]
< 1e-05 s⁻¹

State the recorded self-cleavage kobs at 640 uM GlcN6P for this entry: AUAAAAGAGCCAGAACUACAGAAAUGUAGCUGACGAGGAGGAGGUUUAUCUAAUUUUCGGCGGAUGCCUCCAAA [C8A U30C G51U]
< 1e-05 s⁻¹

State the recorded self-cleavage kobs at 640 uM GlcN6P for this entry: AUAAAAGCGCCAUAACUACAGAAAUGUAGUUGACGAGGAGGCGGUUUAUCGAAAGUUCGGCGGAUGCCUCCAAA [G13U A42C U54A U55G]
< 1e-05 s⁻¹

State the recorded self-cleavage kobs at 640 uM GlcN6P for this entry: AUAAAAGCCCCAGAACUACAGAAAUGUAGUUGACGAGGAGGAUGUUUAUCGAAUGUUCGGCGGGUGCCUCCAAA [G9C G43U U55G A64G]
< 1e-05 s⁻¹

State the recorded self-cleavage kobs at 640 uM GlcN6P for this entry: AUAAAAGCGCCAGAACUACAGAAAUGUAGUUGACGAGGAGGAGGUUUAUCGAUUUUUCGGCGGAUGCCUCUAAA [A53U C71U]
0.00728 s⁻¹

State the recorded self-cleavage kobs at 640 uM GlcN6P for this entry: AUAAAAGCGCGAGAGCUACAGAAAUGUAGUUGACGAGGAGGAGGUUUAUCGAAUUUUCGGCGGAUGCCUCCAAA [C11G A15G]
< 1e-05 s⁻¹

State the recorded self-cleavage kobs at 640 uM GlcN6P for this entry: AUAAAAGCGCCAGAACUACAGAAAUGUAGUUGACAAGGAGGAGGUUUCUCGAAAUUUCGGCGGAUGCCUACAAA [G35A A48C U54A C70A]
< 1e-05 s⁻¹

State the recorded self-cleavage kobs at 640 uM GlcN6P for this entry: AUAAAGGCGCUAGAACUACAGAAAUGUAGUUGACGAGGAGGAGGUUUAUCUAAUUUUCGGCGGAUGCCUCCAAA [A6G C11U G51U]
< 1e-05 s⁻¹

State the recorded self-cleavage kobs at 640 uM GlcN6P for this entry: AUAAAAGCGCCGGAACUACAGAAAUGUAGUUGACGAGGAGGAGGUUUAUCGAAUUUUCGGCGGAUGGCUCCAAA [A12G C67G]
8.36e-05 s⁻¹

State the recorded self-cleavage kobs at 640 uM GlcN6P for this entry: AUAAAAGCGCCAGAACUACAGAAAUGUAGUUGACGAGGAGGAGUUUUAUCGAAUUUUAGGCGGAUGCCUCAAAA [G44U C58A C71A]
< 1e-05 s⁻¹

State the recorded self-cleavage kobs at 640 uM GlcN6P for this entry: AUAAAAGCGCCAGAACUACAGAAAUGUAGUUGCCGAGCAGGAGGUUUAUCGAAUUUUCGGCGGAUGCCUCCAAA [A33C G38C]
< 1e-05 s⁻¹

State the recorded self-cleavage kobs at 640 uM GlcN6P for this entry: AUAAAAGCGCCAGGACUACAGAAAUGUAGUUGACGAGGAGGAGGUUUGUCGAAUUUUCGGCGGAUGCCUCCAAA [A14G A48G]
0.000128 s⁻¹

State the recorded self-cleavage kobs at 640 uM GlcN6P for this entry: AUAAAAGCGCCAGAUCUACAGAAAUGUAGUUGACGAGGAGCAGUUUUUACUAAUUUUCGGCGGAUGUCUCCAAA [A15U G41C G44U A48U U49A G51U C67U]
< 1e-05 s⁻¹

State the recorded self-cleavage kobs at 640 uM GlcN6P for this entry: AUAAAAGCGCCAGAACUACAGAAAUGUAGUUGACGGGGCGGAGGUUUAUCGUAUUUACGGCGGAUGCCUCCAAA [A36G A39C A52U U57A]
< 1e-05 s⁻¹

State the recorded self-cleavage kobs at 640 uM GlcN6P for this entry: AUAAAAGCGCCAGAACUACAGAAAUGUAGUUGACGAGGAGGAGGUUUAUCGAAUUUUCGUCGGAUCCCUUCAAA [G60U G66C C70U]
< 1e-05 s⁻¹

State the recorded self-cleavage kobs at 640 uM GlcN6P for this entry: AUAAAAGCGCCAGAACUACAGAAAUGUAGCUGACAAGGCCGAGGUUUAUCGAAUUUUCGGCGGAUGCAUCCAAA [U30C G35A A39C G40C C68A]
< 1e-05 s⁻¹
